# Test system: Anopheles stephensi
# PROTOCOL NOTES: Anopheles stephensi treated well plate contact test: knockdown and mortality
# Type: in vivo
# PROTOCOL CONDITIONS: test compound 20 ppm plus 2 ppm TFNA-AM, after 48 hours
PARAMETER MEASURED: mortality % 48, with TFNA-AM
Quick note: number first, unit second.

Worked examples, 3 compounds total:
Give mortality % 48, with TFNA-AM (Anopheles stephensi) of the following compound: CC(COc1ccc(Oc2ccccc2)cc1)Oc1ccccn1 (stereo not drawn)
60%

Follow-up item: CC(C)=C[C@@H]1[C@@H](C(=O)O[C@H](C#N)c2cccc(Oc3ccccc3)c2)C1(C)C (relative stereo) [d-d, trans cyphenothrin]
100%

Follow-up item: O=[N+]([O-])c1cc(C(F)(F)F)c(Cl)c([N+](=O)[O-])c1Nc1ncc(C(F)(F)F)cc1Cl
100%

Continuing:
Give mortality % 48, with TFNA-AM (Anopheles stephensi) of the following compound: CC(c1ccc(C(F)(F)F)nc1)S(C)(=O)=NC#N (stereo not drawn)
90%
